system: Saccharomyces cerevisiae; experiment: fraction of cells in G1 phase (DNA content, flow cytometry); higher = more cells with unreplicated DNA (G1 delay); details: temperature: 30 C; YPD; JTY2953 pdr5 snq2 (sensitized); drug added to: actively dividing cells; 6 h
Counter-ions that a name gives are not always drawn.
The label depends only on fraction of cells in G1 phase: condition met if it is at least 0.6, condition not met if it is smaller.

                                   compound     category_label
0  COc1ccc(CN2CCN(C(c3ccc(F)cc3)c3ccc(F)cc3)CC2)c(OC)c1OC [Lomerizine HCl] (42.685 µM)  condition not met
1  O=C1CCc2ccc(OCCCCN3CCN(c4cccc(Cl)c4Cl)CC3)cc2N1 [Aripiprazole] (44.6034 µM)      condition met
2  O=C1NCN(c2ccccc2)C12CCN(CCCC(c1ccc(F)cc1)c1ccc(F)cc1)CC2 [Fluspirilene] (42.0533 µM)  condition not met

Q: Please check the record CC(C)C(=O)c1c(C(C)C)nn2ccccc12 [Ibudilast] (86.8386 µM) and state if its fraction of cells in G1 phase is at or above 0.6.
A: condition met

Q: Please check the record CCOC(=O)C1=C(COCCN)NC(C)=C(C(=O)OC)C1c1ccccc1Cl (stereo not drawn) [Amlodipine] (48.9134 µM) and state if its fraction of cells in G1 phase is at or above 0.6.
A: condition met

Q: Please check the record COC(=O)[C@H](c1ccccc1Cl)N1CCc2sccc2C1 [Clopidogrel sulfate] (62.1449 µM) and state if its fraction of cells in G1 phase is at or above 0.6.
A: condition met

Q: Please check the record Clc1ccc(CO/N=C(\Cn2ccnc2)c2ccc(Cl)cc2Cl)c(Cl)c1 [Oxiconazole nitrate] (46.6053 µM) and state if its fraction of cells in G1 phase is at or above 0.6.
A: condition not met

* * *

tested on: Saccharomyces cerevisiae; assay: fraction of cells in G1 phase (DNA content, flow cytometry); higher = more cells with unreplicated DNA (G1 delay); conditions: temperature: 30 C; YPD; JTY2953 pdr5 snq2 (sensitized); drug added to: cultures diluted from stationary phase; 6-7 h
Where a name gives a salt, the structure may show the parent alone.
Quick reference: fraction of cells in G1 phase of the listed items.

>>> print(df.to_string())
                                   molecule              reported_property  result
0  O=c1[nH]c(=O)n([C@H]2C[C@H](O)[C@@H](CO)O2)cc1F [Floxuridine] (81.2358 µM)  fraction of cells in G1 phase   0.514

fraction of cells in G1 phase measured on CC/C(=C(\c1ccccc1)c1ccc(OCCN(C)C)cc1)c1ccccc1 [Tamoxifen citrate] (53.8319 µM) = 0.896

fraction of cells in G1 phase measured on O=P(O)(O)C(O)(Cn1ccnc1)P(=O)(O)O [Zoledronic acid] (73.5045 µM) = 0.486

fraction of cells in G1 phase measured on O=C(O)Cc1sc(-c2ccccc2)nc1-c1ccc(Cl)cc1 [Fentiazac] (60.6414 µM) = 0.533

fraction of cells in G1 phase measured on CN(C)CCCN1c2ccccc2CCc2ccccc21 [Imipramine HCl] (71.3225 µM) = 0.524

fraction of cells in G1 phase measured on O=C(NC(Cc1cc(=O)[nH]c2ccccc12)C(=O)O)c1ccc(Cl)cc1 (stereo not drawn) [Rebamipide] (53.9381 µM) = 0.473

fraction of cells in G1 phase measured on O=C(O)c1cn(C2CC2)c2cc(N3CCNCC3)c(F)cc2c1=O [Ciprofloxacin] (60.3592 µM) = 0.461

fraction of cells in G1 phase measured on CC=CC(=O)N(CC)c1ccccc1C [Crotamiton] (98.3833 µM) = 0.503
